These data points were gathered from patent US12312332B2.

- system: human OX2R (Homo sapiens, UniProt O43614)
- protocol: IPOne (IP-One) orexin receptor agonist assay in CHO cells expressing human OX2R
- condition info: CHO cells expressing human OX2R; IP-One detection; 2 hours incubation; four parameter logistic fit; read-out: OX2R Potency, EC50
assay readout: EC50 (nM)

# annotated cases, reported EC50 shown
{"compound": "COC[C@@H]1C[C@H](NS(C)(=O)=O)[C@H](CO[C@H]2CC[C@@H](c3cccc(F)c3)CC2)N1c1cc(O)c(F)cn1 [Example 85]", "EC50 (nM)": 0.54}
{"compound": "CS(=O)(=O)N[C@H]1CCN(c2ccc(OC(F)F)cn2)[C@H]1CO[C@H]1CC[C@@H](c2ccccc2)CC1 [Example 35]", "EC50 (nM)": 176}
{"compound": "CS(=O)(=O)N[C@H]1CCN(c2cc(C(F)F)ccn2)[C@H]1CO[C@H]1CC[C@@H](c2ccccc2)CC1 [Example 143]", "EC50 (nM)": 1820}
{"compound": "CS(=O)(=O)N[C@H]1CCN(c2ncccn2)[C@H]1CO[C@H]1CC[C@@H](c2ccccc2)CC1 [Example 38]", "EC50 (nM)": 784}

P. COc1cc(N2CC[C@H](NS(C)(=O)=O)[C@@H]2CO[C@H]2CC[C@@H](c3ccccc3)CC2)ccn1 [Example 59]
Q. CS(=O)(=O)N[C@H]1CCN(c2nccc(O)c2F)[C@H]1CO[C@H]1CC[C@@H](c2cccc(F)c2)CC1 [Example 96]
Asked: Could you please tell me which of these two has the higher EC50: P or Q ? Mark your selection by writing its label.
Given back: P
(P: 2860 nM, Q: 0.23 nM)

P. CS(=O)(=O)N[C@H]1CCN(c2ccnc(C#N)c2)[C@H]1CO[C@H]1CC[C@@H](c2ccccc2)CC1 [Example 25]
Q. CS(=O)(=O)N[C@H]1CCN(c2cnccc2C(F)F)[C@H]1CO[C@H]1CC[C@@H](c2ccccc2)CC1 [Example 121]
Asked: Could you please tell me which of these two has the higher EC50: P or Q ? Mark your selection by writing its label.
Given back: P

A. CS(=O)(=O)N[C@H]1CCN(c2ccncc2)[C@H]1CO[C@H]1CC[C@@H](c2ccccc2)CC1 [Example 57]
B. CS(=O)(=O)N[C@H]1CCN(c2occc2C#N)[C@H]1CO[C@H]1CC[C@@H](c2ccccc2)CC1 [Example 39]
Asked: Could you please tell me which of these two has the higher EC50: A or B ? Mark your selection by writing its label.
Given back: A
(A: 4050 nM, B: 613 nM)

====

- system: human OX2R (Homo sapiens)
- protocol: IPOne (IP-One) orexin receptor agonist assay in CHO cells expressing human OX2R
- condition info: CHO cells expressing human OX2R; IP-One detection; 2 hours incubation; four parameter logistic fit; read-out: OX2R Potency, EC50
pEC50: −log10 of the molar value.
assay readout: pEC50

{"given smiles": "CS(=O)(=O)N[C@H]1CCN(c2ncc(F)c(O)c2F)[C@H]1CO[C@H]1CC[C@@H](c2ccccc2)CC1", "pEC50": 8.70}
{"given smiles": "COC[C@@H]1C[C@H](NS(=O)(=O)N(C)C)[C@H](CO[C@H]2CC[C@@H](c3cccc(F)c3)CC2)N1c1cc(O)c(F)cn1", "pEC50": 9.35}
{"given smiles": "Cc1cccnc1N1CC[C@H](NS(C)(=O)=O)[C@@H]1CO[C@H]1CC[C@@H](c2ccccc2)CC1", "pEC50": 7.23}
{"given smiles": "C[C@@H]1C[C@H](NS(=O)(=O)N(C)C)[C@H](CO[C@H]2CC[C@@H](c3cccc(F)c3)CC2)N1c1cc(O)c(F)cn1", "pEC50": 9.52}
{"given smiles": "CS(=O)(=O)N[C@H]1CCN(c2cnc3occc3c2)[C@H]1CO[C@H]1CC[C@@H](c2ccccc2)CC1", "pEC50": 6.49}

1. CS(=O)(=O)N[C@H]1CCN(c2cccnc2)[C@H]1CO[C@H]1CC[C@@H](c2ccccc2)CC1
2. CS(=O)(=O)N[C@H]1CCN(c2ncns2)[C@H]1CO[C@H]1CC[C@@H](c2ccccc2)CC1
Asked: Could you please tell me which of these two has the higher pEC50: 1 or 2 ? Mark your selection by writing its label.
Given back: 1
(1: 7.69, 2: 6.84)

====

- system: human OX2R (Homo sapiens)
- Construct: expressed in transfected cells; host or cells: Chinese hamster ovary (CHO) cells, kept under G418 selection
- protocol: IPOne (IP-One) orexin receptor agonist assay in CHO cells expressing human OX2R
- Format: cell-based
- condition info: human OX2R; percentage of sample raw value/mean max effect (reference compound at 1 uM with 100% activity)
assay readout: % max agonist effect (Emax) (%)

# annotated cases, reported % max agonist effect (Emax) shown
{"molecule": "CS(=O)(=O)N[C@H]1CCN(c2cnc3cc[nH]c3c2)[C@H]1CO[C@H]1CC[C@@H](c2ccccc2)CC1 (relative stereo) [Example 7]", "% max agonist effect (Emax) [%]": 100.1}
{"molecule": "CS(=O)(=O)N[C@H]1CCN(c2ncccc2C(F)F)[C@H]1CO[C@H]1CC[C@@H](c2ccccc2)CC1 [Example 124]", "% max agonist effect (Emax) [%]": 100.2}

I. CS(=O)(=O)N[C@H]1CCN(c2cncc(C#N)c2)[C@H]1CO[C@H]1CC[C@@H](c2ccccc2)CC1 [Example 133]
II. CS(=O)(=O)N[C@H]1CCN(c2ccc(C(F)(F)F)cc2)[C@H]1CO[C@H]1CC[C@@H](c2ccccc2)CC1 (relative stereo) [Example 3]
Asked: Lowest % max agonist effect (Emax)? choose I or II Mark your selection by writing its label.
Given back: II
(II: 7.9%, I: 100.3%)

1. CS(=O)(=O)N[C@H]1CCN(c2cncc(O)n2)[C@H]1CO[C@H]1CC[C@@H](c2ccccc2)CC1 [Example 149]
2. COc1cncc(N2CC[C@H](NS(C)(=O)=O)[C@@H]2CO[C@H]2CC[C@@H](c3ccccc3)CC2)c1C [Example 128]
Asked: Lowest % max agonist effect (Emax)? choose 1 or 2 Mark your selection by writing its label.
Given back: 2

====

- system: human OX2R (Homo sapiens, UniProt O43614)
- Sequence (O43614 1-444): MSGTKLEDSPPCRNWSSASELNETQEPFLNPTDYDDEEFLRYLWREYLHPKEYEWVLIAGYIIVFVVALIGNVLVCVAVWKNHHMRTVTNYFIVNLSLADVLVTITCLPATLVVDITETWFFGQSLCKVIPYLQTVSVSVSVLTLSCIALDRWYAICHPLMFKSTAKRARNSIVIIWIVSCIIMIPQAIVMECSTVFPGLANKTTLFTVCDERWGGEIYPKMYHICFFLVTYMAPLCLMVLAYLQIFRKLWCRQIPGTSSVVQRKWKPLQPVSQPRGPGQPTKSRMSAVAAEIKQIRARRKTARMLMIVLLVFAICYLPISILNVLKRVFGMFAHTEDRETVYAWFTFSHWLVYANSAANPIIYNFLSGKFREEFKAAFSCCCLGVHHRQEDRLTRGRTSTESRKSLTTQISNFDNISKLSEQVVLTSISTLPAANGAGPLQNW
- protocol: IPOne (IP-One) orexin receptor agonist assay in CHO cells expressing human OX2R
- condition info: CHO cells expressing human OX2R; IP-One detection; 2 hours incubation; four parameter logistic fit; read-out: OX2R Potency, EC50
assay readout: EC50 (nM)

{"given smiles": "CS(=O)(=O)N[C@H]1CCN(c2cncc(OC(F)F)c2)[C@H]1CO[C@H]1CC[C@@H](c2ccccc2)CC1", "result unit": "nM", "numeric readout": 649}

a. Cc1scnc1N1CC[C@H](NS(C)(=O)=O)[C@@H]1CO[C@H]1CC[C@@H](c2ccccc2)CC1
b. CS(=O)(=O)N[C@H]1CCN(c2ccc(O)cn2)[C@H]1CO[C@H]1CC[C@@H](c2ccccc2)CC1
Asked: Lowest EC50? choose a or b Mark your selection by writing its label.
Given back: a
(a: 109 nM, b: 173 nM)

====

- system: human OX2R (Homo sapiens, UniProt O43614)
- Construct: expressed in transfected cells; host or cells: Chinese hamster ovary (CHO) cells, kept under G418 selection
- Sequence (O43614 1-444): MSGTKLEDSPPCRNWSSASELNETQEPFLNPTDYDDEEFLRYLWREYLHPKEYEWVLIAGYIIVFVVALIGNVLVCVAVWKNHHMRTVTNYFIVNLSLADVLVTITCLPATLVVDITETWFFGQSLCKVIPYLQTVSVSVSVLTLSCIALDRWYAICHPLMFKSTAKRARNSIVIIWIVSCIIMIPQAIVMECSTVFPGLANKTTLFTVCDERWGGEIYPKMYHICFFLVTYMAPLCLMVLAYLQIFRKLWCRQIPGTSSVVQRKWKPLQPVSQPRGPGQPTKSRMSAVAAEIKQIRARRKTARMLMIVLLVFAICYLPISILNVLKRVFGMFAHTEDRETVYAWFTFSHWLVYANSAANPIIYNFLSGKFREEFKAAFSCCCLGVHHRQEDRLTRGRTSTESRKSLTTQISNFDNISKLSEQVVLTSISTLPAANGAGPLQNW
- protocol: IPOne (IP-One) orexin receptor agonist assay in CHO cells expressing human OX2R
- Type: cell-based
- condition info: human OX2R; percentage of sample raw value/mean max effect (reference compound at 1 uM with 100% activity)
assay readout: % max agonist effect (Emax) (%)

{"compound": "Cn1cc(N2CC[C@H](NS(C)(=O)=O)[C@@H]2CO[C@H]2CC[C@@H](c3ccccc3)CC2)nn1 (relative stereo)", "% max agonist effect (Emax) [%]": 101.2}
{"compound": "Cc1cnc(N2CC[C@H](NS(C)(=O)=O)[C@@H]2CO[C@H]2CC[C@@H](c3ccccc3)CC2)n1C", "% max agonist effect (Emax) [%]": 100.0}
{"compound": "COc1cccnc1N1CC[C@H](NS(C)(=O)=O)[C@@H]1CO[C@H]1CC[C@@H](c2ccccc2)CC1", "% max agonist effect (Emax) [%]": 100.2}
{"compound": "Cn1ccnc1N1CC[C@H](NS(C)(=O)=O)[C@@H]1CO[C@H]1CC[C@@H](c2ccccc2)CC1", "% max agonist effect (Emax) [%]": 100.0}
{"compound": "CS(=O)(=O)N[C@H]1CCN(c2ncc(Cl)c(O)c2F)[C@H]1CO[C@H]1CC[C@@H](c2cccc(F)c2)CC1", "% max agonist effect (Emax) [%]": 101.4}
{"compound": "CS(=O)(=O)N[C@H]1CCN(c2cnc(C(F)(F)F)nc2)[C@H]1CO[C@H]1CC[C@@H](c2ccccc2)CC1", "% max agonist effect (Emax) [%]": 100.2}
{"compound": "CS(=O)(=O)N[C@H]1CCN(c2cc(C(F)F)ccn2)[C@H]1CO[C@H]1CC[C@@H](c2ccccc2)CC1", "% max agonist effect (Emax) [%]": 95.6}
